Source listed as patent US10253041B2.

Each item that follows carries a reported log10 of IC50.
# system.name: IDH2/R172K (Homo sapiens, UniProt P48735, R172K)
# Construct: His-tag (N)
# Sequence (P48735 40-452 R172K): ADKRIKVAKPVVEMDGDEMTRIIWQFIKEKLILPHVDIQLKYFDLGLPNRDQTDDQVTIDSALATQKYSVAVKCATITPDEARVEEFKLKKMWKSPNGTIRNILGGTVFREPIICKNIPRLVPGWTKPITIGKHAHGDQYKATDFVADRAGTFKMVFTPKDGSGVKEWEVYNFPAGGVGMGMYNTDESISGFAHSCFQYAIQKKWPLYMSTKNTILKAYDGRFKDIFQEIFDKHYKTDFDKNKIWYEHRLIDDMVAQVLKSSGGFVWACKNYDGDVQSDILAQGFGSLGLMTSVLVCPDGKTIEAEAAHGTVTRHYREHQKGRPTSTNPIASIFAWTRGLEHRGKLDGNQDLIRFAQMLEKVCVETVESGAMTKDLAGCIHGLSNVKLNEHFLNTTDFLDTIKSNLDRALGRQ
# test.summary: Biochemical assay for IDH2 R172K mutant enzyme (2HG by RapidFire MS)
# assay.setup: mean ± standard deviation of the mean; 90 minutes reaction
Plainly stated, the numbers are log10 of IC50 given in µM.

INSERT INTO assay_data (molecule, system_name, measurement_label, observed) VALUES
  ('C=CC(=O)N1CCN(Cc2ccc([C@H](C)Nc3ncc4c(n3)N(C)C(=O)OC4)cc2)CC1', 'IDH2/R172K (Homo sapiens, UniProt P48735, R172K)', 'log10 of IC50', 1.36),
  ('C=CC(=O)N1CCN(Cc2ccc([C@H](C)Nc3ncc4c(n3)N(CC(C)C)C(=O)OC4)cc2)CC1', 'IDH2/R172K (Homo sapiens, UniProt P48735, R172K)', 'log10 of IC50', 0.73);

// query Which measured log10 of IC50 value corresponds to C=CC(=O)N1CCC(N(C)Cc2ccc([C@H](C)Nc3ncc4c(n3)N(CC)C(=O)OC4)cc2)CC1 ?
// result 1.40

// query // lookup log10 of IC50 for C=CC(=O)N1CCN(Cc2ccc([C@H](C)Nc3ncc4c(n3)N(CC)C(=O)OC4)cc2F)CC1
// result 0.61

###

Quick list: pIC50 per entry.
# system.name: IDH2/R172K (Homo sapiens, UniProt P48735, R172K)
# Construct: His-tag (N)
# test.summary: Biochemical assay for IDH2 R172K mutant enzyme (2HG by RapidFire MS)
# assay.setup: mean ± standard deviation of the mean; 90 minutes reaction
The quantity pIC50 is defined as the negative base-10 logarithm of the molar concentration.

INSERT INTO measurements (molecule, measurement_label, observed) VALUES
  ('C=CC(=O)N1CCN(Cc2ccc([C@H](C)Nc3ncc4c(n3)N(CC(F)F)C(=O)OC4)cc2)CC1 [Example 20]', 'pIC50', 5.17),
  ('C=CC(=O)N1CC(OCc2ccc([C@H](C)Nc3ncc4c(n3)N(CC(C)C)C(=O)OC4)cc2)C1 [Example 13]', 'pIC50', 5.27);

Next molecule, pIC50 to be filled in.
// query Which measured pIC50 value corresponds to C=CC(=O)N1CC(OCc2ccc([C@H](C)Nc3ncc4c(n3)N(CC)C(=O)OC4)cc2)C1 [Example 4] ?
// result 5.84

###

# System: IDH1/R132H in U87MG glioma cells
# test.summary: U87MG/IDH1R132H cell assay (intracellular 2HG)
# Format: cell-based
# assay.setup: Homo sapiens, U-87 MG, 1 hour + 18 hours incubation, read-out: U87MG (IDH1/R132H 2-hydroxyglutarate IC50)
measurement.label: IC50 (µM)
Note: unit µM is implicit; provide only the numeric part.

INSERT INTO results (molecule, measurement_label, observed) VALUES
  ('C=CC(=O)N1CCN(Cc2ccc([C@H](C)Nc3ncc4c(n3)N(C)C(=O)OC4)cc2)CC1', 'IC50', 0.0449);

// query Recorded IC50 for C=CC(=O)N1CCC(N(C)Cc2ccc([C@H](C)Nc3ncc4c(n3)N(CC)C(=O)OC4)cc2)CC1 , please?
// result 0.0135

###

# system.name: IDH2 Wild-Type (Homo sapiens, UniProt P48735)
# Sequence (P48735 40-452): as the sequence (P48735 40-452 R172K) above, with K133R counted along it
measurement.label: IC50
Returns: string containing the numeric result and its unit.

Example results:
INSERT INTO measurements (compound, system_name, observed) VALUES
  ('C=CC(=O)N1CCN(Cc2ccc([C@H](C)Nc3ncc4c(n3)N(CC)C(=O)OC4)cc2F)CC1 [Example 16]', 'IDH2 Wild-Type (Homo sapiens, UniProt P48735)', '22.7 µM'),
  ('C=CC(=O)N1CCN(c2ccc([C@H](C)Nc3ncc4c(n3)N(C(C)C)C(=O)OC4)cc2)CC1 [Example 6]', 'IDH2 Wild-Type (Homo sapiens, UniProt P48735)', '25.4 µM');

// query Provide the documented IC50 with IDH2 Wild-Type (Homo sapiens, UniProt P48735) as the system for C=CC(=O)N1CCC2(CC1)CN(Cc1ccc([C@H](C)Nc3ncc4c(n3)N(C(C)C)C(=O)OC4)cc1)C2 [Example 8]
// result 69.4 µM

###

# system.name: IDH2/R140Q (Homo sapiens, UniProt P48735, R140Q)
# Construct: His-tag (N)
# Sequence (P48735 40-452 R140Q): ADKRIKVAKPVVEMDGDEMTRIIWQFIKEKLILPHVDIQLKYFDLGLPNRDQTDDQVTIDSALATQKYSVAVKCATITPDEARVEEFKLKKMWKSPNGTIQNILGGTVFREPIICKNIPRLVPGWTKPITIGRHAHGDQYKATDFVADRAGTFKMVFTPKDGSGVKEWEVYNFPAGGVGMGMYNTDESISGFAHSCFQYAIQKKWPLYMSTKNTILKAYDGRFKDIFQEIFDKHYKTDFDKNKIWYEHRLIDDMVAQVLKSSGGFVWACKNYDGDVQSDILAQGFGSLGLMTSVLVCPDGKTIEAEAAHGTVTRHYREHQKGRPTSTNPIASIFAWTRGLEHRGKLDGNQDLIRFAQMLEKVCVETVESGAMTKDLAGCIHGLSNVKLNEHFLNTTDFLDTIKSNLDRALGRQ
# test.summary: Biochemical assay for IDH2 R140Q mutant enzyme (2HG by RapidFire MS)
# assay.setup: mean ± standard deviation of the mean; 90 minutes reaction
A collection of compounds and their measured pIC50
# pIC50: negative log10 of molar concentration; output just the value

INSERT INTO measurements (molecule, measurement_label, observed) VALUES
  ('C=CC(=O)N1CCN(Cc2ccc([C@H](C)Nc3ncc4c(n3)N(C(C)C)C(=O)OC4)cc2)CC1', 'pIC50', 4.38),
  ('C=CC(=O)N1CC(OCc2ccc([C@H](C)Nc3ncc4c(n3)N(CC(C)C)C(=O)OC4)cc2)C1', 'pIC50', 4.03),
  ('C=CC(=O)N1CC(COc2ccc([C@H](C)Nc3ncc4c(n3)N(CC)C(=O)OC4)cc2)C1', 'pIC50', 4.31);

// query Identify the measured pIC50 of C=CC(=O)N1CC(OCc2ccc([C@H](C)Nc3ncc4c(n3)N(CC)C(=O)OC4)cc2)C1 for IDH2/R140Q (Homo sapiens, UniProt P48735, R140Q).
// result 4.42

// query What measured pIC50 is associated with C=CC(=O)N1CCN(Cc2ccc([C@H](C)Nc3ncc4c(n3)N(CC(F)F)C(=O)OC4)cc2)CC1 on IDH2/R140Q (Homo sapiens, UniProt P48735, R140Q)?
// result 4.08

###

Catalogue of pIC50 values
# system.name: IDH1/R132C (Homo sapiens, UniProt O75874, R132C)
# Construct: His-tag (N)
# Sequence (O75874 whole entry R132C): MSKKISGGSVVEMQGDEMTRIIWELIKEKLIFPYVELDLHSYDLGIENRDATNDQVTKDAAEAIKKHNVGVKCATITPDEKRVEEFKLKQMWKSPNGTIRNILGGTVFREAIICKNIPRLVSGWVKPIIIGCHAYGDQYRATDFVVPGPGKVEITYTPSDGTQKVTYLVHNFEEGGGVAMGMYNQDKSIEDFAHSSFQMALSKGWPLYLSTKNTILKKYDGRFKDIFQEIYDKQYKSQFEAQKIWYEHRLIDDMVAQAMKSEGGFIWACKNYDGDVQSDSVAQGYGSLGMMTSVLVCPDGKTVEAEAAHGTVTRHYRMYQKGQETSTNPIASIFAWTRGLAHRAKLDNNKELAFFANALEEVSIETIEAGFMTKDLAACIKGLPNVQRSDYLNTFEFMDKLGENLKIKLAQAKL
# test.summary: Biochemical assay for IDH1 R132C mutant enzyme (2HG by RapidFire MS);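 further: the IC50 [structure] column is the IDH1 R132C enzyme IC50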
# assay.setup: mean ± standard deviation of the mean; 90 minutes reaction
API: returns pIC50 as number; meaning -log10 of concentration in mol/L.

INSERT INTO measurements (compound, measurement_label, observed) VALUES
  ('C=CC(=O)N1CCN(Cc2ccc([C@H](C)Nc3ncc4c(n3)N(C)C(=O)OC4)cc2)CC1', 'pIC50', 5.80),
  ('C=CC(=O)N1CC2(CN(Cc3ccc([C@H](C)Nc4ncc5c(n4)N(CC)C(=O)OC5)cc3)C2)C1', 'pIC50', 7.08);

// query Which pIC50 reading was recorded for the compound C=CC(=O)N1CCN(Cc2ccc([C@H](C)Nc3ncc4c(n3)N(CC(C)C)C(=O)OC4)cc2)CC1 ?
// result 7.53

// query Entry under review: C=CC(=O)N1CC(CCc2ccc([C@H](C)Nc3ncc4c(n3)N(CC)C(=O)OC4)cc2)C1 . Reported pIC50?
// result 7.35

// query State the recorded pIC50 for this entry: C=CC(=O)N1CC(COc2ccc([C@H](C)Nc3ncc4c(n3)N(CC)C(=O)OC4)cc2)C1
// result 6.67

// query Consider the compound C=CC(=O)N1CC(OCc2ccc([C@H](C)Nc3ncc4c(n3)N(CC(C)C)C(=O)OC4)cc2)C1 and give its measured pIC50.
// result 7.03

// query Look up pIC50 for this compound: C=CC(=O)N1CC=C(COc2ccc([C@H](C)Nc3ncc4c(n3)N(CC)C(=O)OC4)cc2)C1
// result 7.11

// query Tell me the measured pIC50 of C=CC(=O)N1CCN(c2ccc([C@H](C)Nc3ncc4c(n3)N(C(C)C)C(=O)OC4)cc2)CC1 , please.
// result 6.79

// query # lookup: pIC50 of C=CC(=O)N1CCC(N(C)Cc2ccc([C@H](C)Nc3ncc4c(n3)N(CC)C(=O)OC4)cc2)CC1
// result 6.34

// query pIC50 lookup needed for C=CC(=O)N1CCN(Cc2ccc([C@H](C)Nc3ncc4c(n3)N(CC)C(=O)OC4)cc2F)CC1 , thanks.
// result 6.86

###

# Test system: IDH1 mutant R132C in fibrosarcoma cell line HT1080
# test.summary: HT1080 cell assay (intracellular 2HG and αKG)
# Assay type: cell-based
# assay.setup: Homo sapiens, HT-1080, intracellular αKG, 1 hour + 18 hours incubation; read-out: HT1080 (R132C, αKG) IC50
measurement.label: IC50

Look over these answered cases.
INSERT INTO results (molecule, observed) VALUES
  ('C=CC(=O)N1CCN(Cc2ccc([C@H](C)Nc3ncc4c(n3)N(CC(F)F)C(=O)OC4)cc2)CC1', '> 20 µM'),
  ('C=CC(=O)N1CCN(Cc2ccc([C@H](C)Nc3ncc4c(n3)N(CC(C)C)C(=O)OC4)cc2)CC1', '> 20 µM'),
  ('C=CC(=O)N1CCN(Cc2ccc([C@H](C)Nc3ncc4c(n3)N([C@H](C)CO)C(=O)OC4)cc2)CC1', '> 20 µM');

Now for another entry.
// query Identify the measured IC50 of C=CC(=O)N1CCN(Cc2ccc([C@H](C)Nc3ncc4c(n3)N(CC)C(=O)OC4)cc2)CC1 for IDH1 mutant R132C in fibrosarcoma cell line HT1080.
// result > 20 µM
